# EXPERIMENTAL PROTOCOL: melting temperature; fluorescence melt of hairpins on a sequencing array, two-state fit, raised by 9.35 °C to match UV melts
# CONDITION INFO: sodium 0.088 M
VALUE TYPE: Tm (°C)
Report the value in °C with no unit label.

Short answer for GCCAAAGCGAAAGCTGGC (((..(((....)))))) : Tm was 59.7

Short answer for GCTCCCGAAAGGGTAAGC ((((((....)))..))) : Tm was 46.2

Short answer for GATCGCACCAGCGATC ((((((....)))))) : Tm was 69.3

Short answer for GGAAAAGGAAACTTTTTC (.(((((....))))).) : Tm was 33

Short answer for GATCGCTTGTGCGATC ((((((....)))))) : Tm was 68

Short answer for GAGTGCGCGAAAGCGCTC (((..(((....)))))) : Tm was 32
